# Test method notes: Preclinical pharmacokinetics in mice
# Assay type: in vivo, mouse
# Recorded conditions: in vivo; APP/PS1 mouse, 1 mg/kg single oral administration; read-out: CL/F (converted)
Observable: CL/F

CS(=O)(=O)O.C[C@H](NCc1ccc(-c2ccc(C(F)(F)F)cc2)cc1)C(N)=O : 15 mL/min/kg

---

# Test method notes: Preclinical pharmacokinetics in monkeys
# Type: in vivo, Cynomolgus monkey
# Recorded conditions: male, cynomolgus, cynomolgus monkey, in vivo, po, 30 mg/kg, mean half-life (t1/2)
# Procedure: In a pharmacokinetic study, plasma PK parameters were measured after a single oral administration of […] dose group and at 4 to 6 hours after administration in the 30 mg/kg dose group. In the elimination phase, the […] Systemic exposure (AUClast) to the test substance was 30587 and 80770 ng*hr/mL, respectively. […]
Observable: half-life (h)

CS(=O)(=O)O.C[C@H](NCc1ccc(-c2ccc(C(F)(F)F)cc2)cc1)C(N)=O : 31.1
